test: Toxicity liver stage against HepG2, at 10uM; type: cell-based; design: test concentration 10 uM, cell line HepG2-A16-CD81EGFP; conditions: human, HepG2-A16-CD81EGFP cells; read-out: INHIBITION
# cytotoxicity at 10 µM per record follows

- molecule: "CN(Cc1ccccc1CN1CCCC1)c1ncnc2[nH]ccc12"
  cytotoxicity at 10 µM: "8.53%"
- molecule: "Cc1cnn(CC2CN(CC(=O)NCc3ccco3)CCO2)c1 (stereo unspecified)"
  cytotoxicity at 10 µM: "-1.43%"
- molecule: "CN(C)c1nccc(C2CN(S(C)(=O)=O)C2)n1"
  cytotoxicity at 10 µM: "6.95%"

Asked: Quick one: cytotoxicity at 10 µM for CC(C)(O)CN1CCN(C(=O)C2CSc3ccccc3O2)CC1 (stereo unspecified) ?
Given back: 2.16%

Asked: Quick one: cytotoxicity at 10 µM for O=S(=O)(c1cccs1)N1CCCC2(COCCN(c3cccnc3)C2)C1 (stereo unspecified) ?
Given back: -78.5%

Asked: Quick one: cytotoxicity at 10 µM for CC(C)C(C(=O)O)c1cccc(Cl)c1 (stereo unspecified) ?
Given back: -12.8%

###

experiment: Toxicity liver stage against HepG2, at 10uM; assay type: cell-based; design: test concentration 10 uM, cell line HepG2-A16-CD81EGFP; conditions: human, HepG2-A16-CD81EGFP cells; read-out: INHIBITION
# cytotoxicity at 10 µM per record follows
Express it in %; write the number only.

- compound: "Cc1cc(N(C)C)nc(C2(C)CCCN2CC(N)=O)n1 (stereo not drawn)"
  cytotoxicity at 10 µM, %: -2.8
- compound: "CC(C)CSCCN1CCCN(S(C)(=O)=O)CC1"
  cytotoxicity at 10 µM, %: -8.17
- compound: "Cc1ccc(NCCNC(=O)C2Cc3cc(C)c(C)cc3O2)nn1 (stereo not drawn)"
  cytotoxicity at 10 µM, %: 3.34
- compound: "Cc1ccc(N2CCC(C(O)Cc3ccccc3)CC2)nn1 (stereo not drawn)"
  cytotoxicity at 10 µM, %: -3.43
- compound: "CCOc1cc(C)nc(N2CCN(C(=O)c3cc(Cl)c[nH]3)CC2)n1"
  cytotoxicity at 10 µM, %: 6.81
- compound: "CC(C)(C)c1n[nH]c(C2CN(C(=O)CCC3CC3)CCO2)n1 (stereo not drawn)"
  cytotoxicity at 10 µM, %: -12.7
- compound: "Cc1cc(C)n(CC2CCCCN2C(=O)c2ccc3c(c2)COC3)n1 (stereo not drawn)"
  cytotoxicity at 10 µM, %: -24.4
- compound: "CNCc1cn(CC2CCN(CC(C)(C)CN3CCCC3)CC2)nn1"
  cytotoxicity at 10 µM, %: -1.58
- compound: "COC[C@@]12CC[C@@H](N3CCOCC3)C[C@H]1CCN(c1ncccn1)C2"
  cytotoxicity at 10 µM, %: -11.9
- compound: "CCN(Cc1ccoc1)C(C(N)=O)c1ccc(C#N)cc1 (stereo not drawn)"
  cytotoxicity at 10 µM, %: -18.6

Asked: Quick one: cytotoxicity at 10 µM for Cn1cccc1C(=O)N1CCC2(CC1)CCN2S(C)(=O)=O ?
Given back: 8.73

Asked: Quick one: cytotoxicity at 10 µM for O=C1[C@@H]2CN(Cc3cc4ccccc4o3)C[C@]2(C(=O)O)CN1CC1CC1 ?
Given back: -5.22

Asked: Quick one: cytotoxicity at 10 µM for CS(=O)(=O)NC1CCCN(C(=O)COCc2ccccc2)C1 (stereo not drawn) ?
Given back: -5.28

Asked: Quick one: cytotoxicity at 10 µM for COCCCNC(=O)c1c(C)noc1C(C)C ?
Given back: -28.2

Asked: Quick one: cytotoxicity at 10 µM for O=C(NCc1nncn1C1CCCCC1)C1COc2ccccc2C1 (stereo not drawn) ?
Given back: 3.16

###

assay: Toxicity liver stage against HepG2, at 10uM; assay type: cell-based; design: test concentration 10 uM, cell line HepG2-A16-CD81EGFP; details: human, HepG2-A16-CD81EGFP cells; read-out: INHIBITION
test.readout: cytotoxicity at 10 µM

- molecule: "O=C(c1ccco1)N1CCO[C@@H]2CN(c3ncc(F)cn3)CC[C@@H]2C1"
  result: "4.74%"

Asked: Quick one: cytotoxicity at 10 µM for CC[C@H]1COCCN1C(=O)c1cnc(C(C)C)nc1C ?
Given back: 8.51%

Asked: Quick one: cytotoxicity at 10 µM for CCc1nc(Cn2c(=O)n(CC)c3ccccc32)no1 ?
Given back: -43.9%

Asked: Quick one: cytotoxicity at 10 µM for O=C(c1cc[nH]n1)N1CC[C@@H]2CN(Cc3ccncc3)S(=O)(=O)[C@@H]2CC1 ?
Given back: 10.5%

Asked: Quick one: cytotoxicity at 10 µM for CC(C)C(NCc1ccc(Cn2cncn2)cc1)c1ccc(F)cn1 (stereo not given) ?
Given back: -0.593%

###

# cytotoxicity at 10 µM per record follows
assay: Toxicity liver stage against HepG2, at 10uM; format: cell-based; parameters: test concentration 10 uM, cell line HepG2-A16-CD81EGFP; settings: human, HepG2-A16-CD81EGFP cells; read-out: INHIBITION
Express it in %; write the number only.

- compound: "Fc1ccc(Br)c(NCc2nnsc2Cl)c1"
  cytotoxicity at 10 µM / %: 14.3
- compound: "Cc1ccc(NC(=O)CC2Cn3ncnc3NC2=O)cc1C (stereo not given)"
  cytotoxicity at 10 µM / %: 10.5
- compound: "O=c1cc(N2CCCC2)cnn1CC(F)F"
  cytotoxicity at 10 µM / %: 6.93
- compound: "CCC1c2ccsc2CCN1C(=O)NCc1ccc(C)nc1 (stereo not given)"
  cytotoxicity at 10 µM / %: -3.75
- compound: "O=C1CCCN1c1cccc(CNCc2nc(-c3ccco3)no2)c1"
  cytotoxicity at 10 µM / %: 0.379

Asked: Quick one: cytotoxicity at 10 µM for Cc1[nH]ncc1CCCNC(=O)Nc1ccc(F)cc1 ?
Given back: 3.91

Asked: Quick one: cytotoxicity at 10 µM for O=S(=O)(N1CCOCC1)N1CCc2sccc2C1 ?
Given back: -92.3

Asked: Quick one: cytotoxicity at 10 µM for Fc1cnc(N2CCCn3c(nnc3Cn3cccc3)C2)nc1 ?
Given back: -134

Asked: Quick one: cytotoxicity at 10 µM for CC(C)N(CCSc1ncnc2[nH]ncc12)C(C)C ?
Given back: 0.25

###

assay: Toxicity liver stage against HepG2, at 10uM; type: cell-based; parameters: test concentration 10 uM, cell line HepG2-A16-CD81EGFP; details: human, HepG2-A16-CD81EGFP cells; read-out: INHIBITION
test.readout: cytotoxicity at 10 µM

- compound: "COCCn1cncc1Cn1cccc(C(F)(F)F)c1=O"
  cytotoxicity at 10 µM: "-19.2%"
- compound: "CC(NC(=O)C1CCCC1)c1nc(-c2ccccc2)c[nH]1 (stereo not drawn)"
  cytotoxicity at 10 µM: "6%"
- compound: "CCc1c(C)nn2c(O)cc(C3CCN(C(=O)C4CC4)C3)nc12 (stereo not drawn)"
  cytotoxicity at 10 µM: "1.97%"
- compound: "CCS(=O)(=O)c1ccc2c(c1)N1CCS(=O)(=O)N=C1O2"
  cytotoxicity at 10 µM: "10.3%"
- compound: "Cc1nc[nH]c1CN1CCOC(CCNC(=O)c2ccsc2)C1 (stereo not drawn)"
  cytotoxicity at 10 µM: "-13.1%"
- compound: "COc1cc(CNC(=O)COC2CCCCC2)ccc1O"
  cytotoxicity at 10 µM: "6.81%"
- compound: "CC(C)NC(=O)c1sccc1N(C)S(=O)(=O)c1ccc(Cl)cc1"
  cytotoxicity at 10 µM: "9.22%"
- compound: "CO[C@@H]1CCN(C(=O)Cc2ccsc2)[C@H]1Cc1cccnc1"
  cytotoxicity at 10 µM: "6.9%"

Asked: Quick one: cytotoxicity at 10 µM for O=C(Nc1ccccc1OC(F)(F)F)C1CCS(=O)(=O)C1 (stereo not drawn) ?
Given back: 10.8%

Asked: Quick one: cytotoxicity at 10 µM for Cc1ccc(OCCCC(=O)NC(C)c2nnc3n2CCC3)cc1 (stereo not drawn) ?
Given back: -15%

Asked: Quick one: cytotoxicity at 10 µM for COC(=O)CN(C)C1CCc2ccccc21 (stereo not drawn) ?
Given back: -7.59%

Asked: Quick one: cytotoxicity at 10 µM for CN(C)Cc1ccnc(C2CCCN2Cc2cc3ccccc3s2)n1 (stereo not drawn) ?
Given back: 20.2%

Asked: Quick one: cytotoxicity at 10 µM for CN(C)CC(C)(C)Cn1cnc(-c2ccccc2)c1-c1cccc(O)c1 ?
Given back: -5.53%

Asked: Quick one: cytotoxicity at 10 µM for Cc1nc(CN2CCO[C@@H]3CNCC[C@@H]3C2)cs1 ?
Given back: 4.47%

Asked: Quick one: cytotoxicity at 10 µM for Cc1ccccc1CSc1nc(N)cc(N2CCCC(O)C2)n1 (stereo not drawn) ?
Given back: -6.52%

###

experiment: Toxicity liver stage against HepG2, at 10uM; assay type: cell-based; set-up: test concentration 10 uM, cell line HepG2-A16-CD81EGFP; conditions: human, HepG2-A16-CD81EGFP cells; read-out: INHIBITION
test.readout: cytotoxicity at 10 µM (%)
Express it in %; write the number only.

Use the examples below as a reference point.
- molecule: "Cc1cccc(CO[C@@H]2CC[C@H]3[C@H]2OCCN3Cc2cc(C)on2)n1"
  cytotoxicity at 10 µM (%): -3.59
- molecule: "CN(CCC(F)(F)F)Cc1nc2ccccc2c(=O)[nH]1"
  cytotoxicity at 10 µM (%): -5.61
- molecule: "Fc1ccc(-c2cnc(CN3CCOC(Cn4cccn4)C3)o2)cc1 (stereo not given)"
  cytotoxicity at 10 µM (%): -12.1

Asked: Quick one: cytotoxicity at 10 µM for CC(C)c1nnc2n1CC(CNCc1ccncc1)CC2 (stereo not given) ?
Given back: -17.5

Asked: Quick one: cytotoxicity at 10 µM for CCc1nc(C2CCCN2Cc2cc(=O)n(C)c(=O)n2C)no1 (stereo not given) ?
Given back: -11.5

Asked: Quick one: cytotoxicity at 10 µM for Cc1nc(N(C)C)nc(C)c1NC(=O)c1ccccc1C(F)(F)F ?
Given back: -1.94

Asked: Quick one: cytotoxicity at 10 µM for Cc1cc(CN(C)C(=O)C2CCCN(C(N)=O)C2)no1 (stereo not given) ?
Given back: 11.6

Asked: Quick one: cytotoxicity at 10 µM for O=C(COCc1ccccc1)N1CCCC(OCc2cccnc2)C1 (stereo not given) ?
Given back: -2.65

Asked: Quick one: cytotoxicity at 10 µM for CCOc1ccc(NC2CCN(C)C2=O)cn1 (stereo not given) ?
Given back: -3.7

Asked: Quick one: cytotoxicity at 10 µM for CCC1(CC)CC(=O)N(CC(O)c2cc(F)ccc2F)C1=O (stereo not given) ?
Given back: -4.42

Asked: Quick one: cytotoxicity at 10 µM for COCCN1C2(CCN(Cc3nccs3)C2)c2ccccc2S1(=O)=O (stereo not given) ?
Given back: -65.7

Asked: Quick one: cytotoxicity at 10 µM for O=C(c1ccccc1)N1CCCC(Nc2ccc(F)cc2)C1 (stereo not given) ?
Given back: -3.09

Asked: Quick one: cytotoxicity at 10 µM for O=C(NCC(Cc1cccc(F)c1)n1cccc1)C1CC1 (stereo not given) ?
Given back: 1.22

Asked: Quick one: cytotoxicity at 10 µM for O=C(Cc1ccccc1C(F)(F)F)N1CCC2(CC1)OCCCC2O (stereo not given) ?
Given back: -2.62

Asked: Quick one: cytotoxicity at 10 µM for CS(=O)(=O)NCCCNC(=O)NCc1ccccc1 ?
Given back: -3.54

Asked: Quick one: cytotoxicity at 10 µM for COCCN(Cc1ccc(F)cc1Cl)C(=O)c1ccc(=O)[nH]n1 ?
Given back: 0.469

Asked: Quick one: cytotoxicity at 10 µM for CCOc1ccccc1OCCN(C)Cc1ncnn1CC ?
Given back: 10.2

Asked: Quick one: cytotoxicity at 10 µM for Cc1nc2ccccc2n(Cc2nnnn2C2CC2)c1=O ?
Given back: -10.3
